All figures here come from ChEMBL document CHEMBL3580617.

ASSAY NAME: Half life in rhesus monkey at 1 mg/kg, po or 0.5 mg/kg, iv by LC-MS/MS method
Type: ADME, organism-based, Macaca mulatta
CONDITION DESCRIPTION: in vivo
OBSERVATION TYPE: half-life (h)
# value in h; strip the unit string

Task: Kindly indicate its recorded half-life. Item: `Fc1cncc(-c2nc3cc(F)c(F)cc3n2C2CC2)c1`
Output: 7.4

----------
ASSAY NAME: Plasma clearance in rhesus monkey at 1 mg/kg, po or 0.5 mg/kg, iv by LC-MS/MS method
Assay type: ADME, organism-based, Macaca mulatta
OBSERVATION TYPE: clearance (mL/min/kg)
# value in mL/min/kg; strip the unit string

Guide cases for clearance, answers given:
MOLECULE	UNIT OF MEASURE	clearance
Fc1cncc(-c2nc3cc(F)c(F)cc3n2C2CC2)c1	mL/min/kg	10
Cc1c(F)cncc1-c1nc2cc(F)c(F)cc2n1C1CC1	mL/min/kg	19

Field: next molecule
Task: Kindly indicate its recorded clearance. Item: CC(C)(O)c1cncc(-c2nc3ccc(F)cc3n2C2CC2)c1 [MSD-CYP11B2]
Output: 5
